# assay.procedure: Tissue distribution in Swiss nu/nu SSCUP mice bearing Dau
# Format: in vivo, human
# applied.conditions: mouse, spleen, iv, 3 umol/animal; 12 h; read-out: spleen % ID/g
# Experimental: The study of the tissue distribution of the ^125 I labelled compounds was performed in mice bearing grafted melanomas (cf. autoradiograms above). […] The animals are sacrificed at different time intervals of 1 to 24 hours after the injection. The blood is collected and the principal organs are excised. Aliquots are weighed and the radioactivity of the samples is measured in a […] 1191 counter (analytic tracer). The counting yield for iodine 125 is 60%. […]

[
  {
    "compound": "CCNCCNC(=O)c1ccc(I)cc1 [Derivative B, N-(2-ethylaminoethyl) 4-iodo benzamide]",
    "tissue uptake at 12 h (%ID/g)": 0.05
  },
  {
    "compound": "CCN(CC)CCNC(=O)c1ccc(I)cc1 [Derivative A, N-(2-diethylaminoethyl) 4-iodo benzamide]",
    "tissue uptake at 12 h (%ID/g)": 0.07
  }
]

---

# assay.procedure: Tissue distribution in Swiss nu/nu SSCUP mice bearing Beu
# Type: in vivo, human
# applied.conditions: mouse, liver, iv, 3 umol/animal; 12 h; read-out: liver % ID/g
# Experimental: The study of the tissue distribution of the ^125 I labelled compounds was performed in mice bearing grafted melanomas (cf. autoradiograms above). […] The animals are sacrificed at different time intervals of 1 to 24 hours after the injection. The blood is collected and the principal organs are excised. Aliquots are weighed and the radioactivity of the samples is measured in a […] 1191 counter (analytic tracer). The counting yield for iodine 125 is 60%. […]

[
  {
    "molecule": "CCN(CC)CCNC(=O)c1ccc(I)cc1 [Derivative A, N-(2-diethylaminoethyl) 4-iodo benzamide]",
    "tissue uptake at 12 h, %ID/g": 0.28
  }
]

---

# assay.procedure: Tissue distribution in C57 BL6 mice bearing B16
# Type: in vivo, mouse
# applied.conditions: mouse, tumor, iv, 3 umol/animal; 8 h; read-out: tumor % ID/g
measured.parameter: tissue uptake at 8 h (%ID/g)

[
  {
    "molecule": "CCN(CC)CCNC(=O)c1ccc(I)cc1 [Derivative A, N-(2-diethylaminoethyl) 4-iodo benzamide]",
    "measured.parameter": "tissue uptake at 8 h",
    "unit.abbreviation": "%ID/g",
    "meas.value": 3.42
  }
]

---

# assay.procedure: LD50 determination, i.v. (Karber and Behrens)
# applied.conditions: mouse, in vivo, iv

[
  {
    "compound": "CCN(CC)CCNC(=O)c1ccc(I)cc1 [Derivative A, N-(2-diethylaminoethyl) 4-iodo benzamide]",
    "unit.abbreviation": "mg/kg",
    "LD50": 90
  }
]

---

# assay.procedure: Tissue distribution in Swiss nu/nu SSCUP mice bearing Beu
# Type: in vivo, human
# applied.conditions: mouse, lungs, iv, 3 umol/animal; 1 h; read-out: lungs % ID/g

[
  {
    "compound": "CCN(CC)CCNC(=O)c1ccc(I)cc1 [Derivative A, N-(2-diethylaminoethyl) 4-iodo benzamide]",
    "tissue uptake at 1 h / %ID/g": 7.77
  }
]

---

# assay.procedure: Tissue distribution in Swiss nu/nu SSCUP mice bearing Beu
# Type: in vivo, human
# applied.conditions: mouse, pancreas, iv, 3 umol/animal; 12 h; read-out: pancreas % ID/g

[
  {
    "compound": "CCN(CC)CCNC(=O)c1ccc(I)cc1 [Derivative A, N-(2-diethylaminoethyl) 4-iodo benzamide]",
    "tissue uptake at 12 h (%ID/g)": 0.06
  }
]

---

# assay.procedure: Tissue distribution in Swiss nu/nu SSCUP mice bearing Dau
# Assay type: in vivo, human
# applied.conditions: mouse, kidney, iv, 3 umol/animal, 4 h; read-out: kidney % ID/g
Here the recorded tissue uptake at 4 h is given for each entry.

[
  {
    "compound": "CCN(CC)CCNC(=O)c1ccc(I)cc1 [Derivative A, N-(2-diethylaminoethyl) 4-iodo benzamide]",
    "tissue uptake at 4 h (%ID/g)": 2.15
  },
  {
    "compound": "CCNCCNC(=O)c1ccc(I)cc1 [Derivative B, N-(2-ethylaminoethyl) 4-iodo benzamide]",
    "tissue uptake at 4 h (%ID/g)": 2.51
  }
]

---

# assay.procedure: Tissue distribution in Swiss nu/nu SSCUP mice bearing Dau
# Type: in vivo, human
# applied.conditions: mouse, plasma, iv, 3 umol/animal, 6 h; read-out: plasma % ID/g
Here the recorded tissue uptake at 6 h is given for each entry.

[
  {
    "compound": "CCNCCNC(=O)c1ccc(I)cc1 [Derivative B, N-(2-ethylaminoethyl) 4-iodo benzamide]",
    "unit.abbreviation": "%ID/g",
    "tissue uptake at 6 h": 0.61
  },
  {
    "compound": "CCN(CC)CCNC(=O)c1ccc(I)cc1 [Derivative A, N-(2-diethylaminoethyl) 4-iodo benzamide]",
    "unit.abbreviation": "%ID/g",
    "tissue uptake at 6 h": 0.24
  }
]

---

Here the recorded tissue uptake at 6 h is given for each entry.
# assay.procedure: Tissue distribution in C57 BL6 mice bearing B16
# Format: in vivo, mouse
# applied.conditions: mouse, kidney, iv, 3 umol/animal, 6 h; read-out: kidney % ID/g
measured.parameter: tissue uptake at 6 h (%ID/g)

[
  {
    "compound": "CCNCCNC(=O)c1ccc(I)cc1 [Derivative B, N-(2-ethylaminoethyl) 4-iodo benzamide]",
    "meas.value": 1.86
  },
  {
    "compound": "CCN(CC)CCNC(=O)c1ccc(I)cc1 [Derivative A, N-(2-diethylaminoethyl) 4-iodo benzamide]",
    "meas.value": 1.1
  }
]

---

# assay.procedure: Tissue distribution in Swiss nu/nu SSCUP mice bearing Beu
# Format: in vivo, human
# applied.conditions: mouse, kidney, iv, 3 umol/animal, 24 h; read-out: kidney % ID/g
measured.parameter: tissue uptake at 24 h (%ID/g)

[
  {
    "molecule": "CCN(CC)CCNC(=O)c1ccc(I)cc1 [Derivative A, N-(2-diethylaminoethyl) 4-iodo benzamide]",
    "unit.abbreviation": "%ID/g",
    "meas.value": 0.06
  }
]

---

# assay.procedure: Tissue distribution in Swiss nu/nu SSCUP mice bearing Beu
# Format: in vivo, human
# applied.conditions: mouse, intestine, iv, 3 umol/animal; 8 h; read-out: intestine % ID/g
# Method: The study of the tissue distribution of the ^125 I labelled compounds was performed in mice bearing grafted melanomas (cf. autoradiograms above). […] The animals are sacrificed at different time intervals of 1 to 24 hours after the injection. The blood is collected and the principal organs are excised. Aliquots are weighed and the radioactivity of the samples is measured in a […] 1191 counter (analytic tracer). The counting yield for iodine 125 is 60%. […]

[
  {
    "compound": "CCN(CC)CCNC(=O)c1ccc(I)cc1 [Derivative A, N-(2-diethylaminoethyl) 4-iodo benzamide]",
    "tissue uptake at 8 h / %ID/g": 0.15
  }
]

---

Here the recorded tissue uptake at 2 h is given for each entry.
# assay.procedure: Tissue distribution in Swiss nu/nu SSCUP mice bearing Dau
# Type: in vivo, human
# applied.conditions: mouse, brain, iv, 3 umol/animal, 2 h; read-out: brain % ID/g
measured.parameter: tissue uptake at 2 h (%ID/g)

[
  {
    "compound": "CCN(CC)CCNC(=O)c1ccc(I)cc1 [Derivative A, N-(2-diethylaminoethyl) 4-iodo benzamide]",
    "meas.value": 0.99
  },
  {
    "compound": "CCNCCNC(=O)c1ccc(I)cc1 [Derivative B, N-(2-ethylaminoethyl) 4-iodo benzamide]",
    "meas.value": 1.25
  }
]

---

# assay.procedure: Tissue distribution in Swiss nu/nu SSCUP mice bearing Beu
# Format: in vivo, human
# applied.conditions: mouse, pancreas, iv, 3 umol/animal; 2 h; read-out: pancreas % ID/g

[
  {
    "compound": "CCN(CC)CCNC(=O)c1ccc(I)cc1 [Derivative A, N-(2-diethylaminoethyl) 4-iodo benzamide]",
    "tissue uptake at 2 h": "2.28 %ID/g"
  }
]

---

# assay.procedure: Tissue distribution in Swiss nu/nu SSCUP mice bearing Dau
# Assay type: in vivo, human
# applied.conditions: mouse, intestine, iv, 3 umol/animal; 8 h; read-out: intestine % ID/g
Here the recorded tissue uptake at 8 h is given for each entry.
measured.parameter: tissue uptake at 8 h (%ID/g)

[
  {
    "compound": "CCN(CC)CCNC(=O)c1ccc(I)cc1 [Derivative A, N-(2-diethylaminoethyl) 4-iodo benzamide]",
    "measured.parameter": "tissue uptake at 8 h",
    "meas.value": 0.38
  },
  {
    "compound": "CCNCCNC(=O)c1ccc(I)cc1 [Derivative B, N-(2-ethylaminoethyl) 4-iodo benzamide]",
    "measured.parameter": "tissue uptake at 8 h",
    "meas.value": 0.36
  }
]

---

# assay.procedure: Tissue distribution in Swiss nu/nu SSCUP mice bearing Dau
# Format: in vivo, human
# applied.conditions: mouse, intestine, iv, 3 umol/animal; 1 h; read-out: intestine % ID/g
Here the recorded tissue uptake at 1 h is given for each entry.

[
  {
    "molecule": "CCN(CC)CCNC(=O)c1ccc(I)cc1 [Derivative A, N-(2-diethylaminoethyl) 4-iodo benzamide]",
    "tissue uptake at 1 h": "3.74 %ID/g"
  },
  {
    "molecule": "CCNCCNC(=O)c1ccc(I)cc1 [Derivative B, N-(2-ethylaminoethyl) 4-iodo benzamide]",
    "tissue uptake at 1 h": "3.1 %ID/g"
  }
]
